This collection of values is drawn from patent US5766897A.

target: Thrombin (Homo sapiens, UniProt P00734); test: thrombin inhibition activity assay (D.4), specific activity; format: biochemical; conditions: cysteine-PEGylated protein relative to same protein before PEGylation
Measured REL TO ACTIVITY BEFORE PEG, AFTER PEG MODIFICATION, listed per entry.
Assay readout: REL TO ACTIVITY BEFORE PEG, AFTER PEG MODIFICATION

Molecule: S263C (conjugate, UniProt P07093 20-398, looked up, variant S263C, PEG) Glia-derived nexin: SHFNPLSLEELGSNTGIQVFNQIVKSRPHDNIVISPHGIASVLGMLQLGADGRTKKQLAMVMRYGVNGVGKILKKINKAIVSKKNKDIVTVANAVFVKNASEIEVPFVTRNKDVFQCEVRNVNFEDPASACDSINAWVKNETRDMIDNLLSPDLIDGVLTRLVLVNAVYFKGLWKSRFQPENTKKRTFVAADGKSYQVPMLAQLSVFRCGSTSAPNDLWYNFIELPYHGESISMLIALPTESSTPLSAIIPHISTKTIDSWMCIMVPKRVQVILPKFTAVAQTDLKEPLKVLGITDMFDSSKANFAKITTGSENLHVSHILQKAKIEVSEDGTKASAATTAILIARSSPPWFIVDRPFLFFIRHNPTGAVLFMGQINKP
Readout number: 1.86

Molecule: N99C (conjugate, UniProt P07093 20-398, looked up, variant N99C, PEG) Glia-derived nexin: SHFNPLSLEELGSNTGIQVFNQIVKSRPHDNIVISPHGIASVLGMLQLGADGRTKKQLAMVMRYGVNGVGKILKKINKAIVSKKNKDIVTVANAVFVKCASEIEVPFVTRNKDVFQCEVRNVNFEDPASACDSINAWVKNETRDMIDNLLSPDLIDGVLTRLVLVNAVYFKGLWKSRFQPENTKKRTFVAADGKSYQVPMLAQLSVFRCGSTSAPNDLWYNFIELPYHGESISMLIALPTESSTPLSAIIPHISTKTIDSWMSIMVPKRVQVILPKFTAVAQTDLKEPLKVLGITDMFDSSKANFAKITTGSENLHVSHILQKAKIEVSEDGTKASAATTAILIARSSPPWFIVDRPFLFFIRHNPTGAVLFMGQINKP
Readout number: 2.5

Molecule: R63C (conjugate, UniProt P07093 20-398, looked up, variant R63C, PEG) Glia-derived nexin: SHFNPLSLEELGSNTGIQVFNQIVKSRPHDNIVISPHGIASVLGMLQLGADGRTKKQLAMVMCYGVNGVGKILKKINKAIVSKKNKDIVTVANAVFVKNASEIEVPFVTRNKDVFQCEVRNVNFEDPASACDSINAWVKNETRDMIDNLLSPDLIDGVLTRLVLVNAVYFKGLWKSRFQPENTKKRTFVAADGKSYQVPMLAQLSVFRCGSTSAPNDLWYNFIELPYHGESISMLIALPTESSTPLSAIIPHISTKTIDSWMSIMVPKRVQVILPKFTAVAQTDLKEPLKVLGITDMFDSSKANFAKITTGSENLHVSHILQKAKIEVSEDGTKASAATTAILIARSSPPWFIVDRPFLFFIRHNPTGAVLFMGQINKP
Readout number: 2.5

Molecule: S1C (conjugate, UniProt P07093 20-398, looked up, variant S1C, PEG) Glia-derived nexin: CHFNPLSLEELGSNTGIQVFNQIVKSRPHDNIVISPHGIASVLGMLQLGADGRTKKQLAMVMRYGVNGVGKILKKINKAIVSKKNKDIVTVANAVFVKNASEIEVPFVTRNKDVFQCEVRNVNFEDPASACDSINAWVKNETRDMIDNLLSPDLIDGVLTRLVLVNAVYFKGLWKSRFQPENTKKRTFVAADGKSYQVPMLAQLSVFRCGSTSAPNDLWYNFIELPYHGESISMLIALPTESSTPLSAIIPHISTKTIDSWMSIMVPKRVQVILPKFTAVAQTDLKEPLKVLGITDMFDSSKANFAKITTGSENLHVSHILQKAKIEVSEDGTKASAATTAILIARSSPPWFIVDRPFLFFIRHNPTGAVLFMGQINKP
Readout number: 2.5
